Target: hTLR9 (Homo sapiens)
Sequence (Q9NR96 26-1032): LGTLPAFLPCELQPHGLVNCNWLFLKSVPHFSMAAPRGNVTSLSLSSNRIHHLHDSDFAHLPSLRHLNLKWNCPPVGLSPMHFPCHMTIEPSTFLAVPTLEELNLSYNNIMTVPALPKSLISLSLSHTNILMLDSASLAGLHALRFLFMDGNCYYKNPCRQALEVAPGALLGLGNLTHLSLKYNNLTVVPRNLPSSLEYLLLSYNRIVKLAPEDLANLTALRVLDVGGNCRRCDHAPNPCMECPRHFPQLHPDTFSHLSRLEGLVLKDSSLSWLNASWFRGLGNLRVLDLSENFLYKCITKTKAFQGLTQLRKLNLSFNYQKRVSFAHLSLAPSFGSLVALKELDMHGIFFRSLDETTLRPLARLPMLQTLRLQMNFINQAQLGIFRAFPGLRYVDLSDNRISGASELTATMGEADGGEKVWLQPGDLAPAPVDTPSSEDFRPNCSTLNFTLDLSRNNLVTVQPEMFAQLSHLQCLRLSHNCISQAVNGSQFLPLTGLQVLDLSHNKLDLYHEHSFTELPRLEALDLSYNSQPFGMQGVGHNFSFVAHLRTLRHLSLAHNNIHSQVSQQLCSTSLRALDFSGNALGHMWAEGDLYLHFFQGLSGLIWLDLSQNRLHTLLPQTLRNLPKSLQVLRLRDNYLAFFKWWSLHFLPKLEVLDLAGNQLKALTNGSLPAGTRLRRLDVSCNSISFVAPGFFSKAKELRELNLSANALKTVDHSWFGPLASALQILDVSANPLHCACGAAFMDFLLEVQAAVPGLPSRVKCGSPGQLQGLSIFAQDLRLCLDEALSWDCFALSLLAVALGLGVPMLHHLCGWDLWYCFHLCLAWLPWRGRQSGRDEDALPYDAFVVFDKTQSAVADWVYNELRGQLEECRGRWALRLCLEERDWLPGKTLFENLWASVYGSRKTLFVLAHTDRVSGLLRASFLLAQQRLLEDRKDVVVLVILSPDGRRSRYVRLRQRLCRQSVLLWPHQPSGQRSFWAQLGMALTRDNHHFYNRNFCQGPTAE
Experiment: HEK293-Blue-hTLR-9 cells assay (SEAP reporter, ODN2006 stimulation)
Format: cell-based
Conditions: HEK293-Blue-hTLR9 cells, ODN2006, 20 hrs; 0.032 is the lowest tested concentration; read-out: HEK/hTLR9 IC50
pIC50: −log10 of the molar value.
Label FALSE if pIC50 falls below 7; label TRUE in every other case.

- COMPOUND: "C[C@@H]1CN(c2ccc(C#N)n3nccc23)C[C@H](CN2Cc3ccc(N4CCN(C)CC4)cc3C2)O1"
  CAT: "TRUE"
- COMPOUND: "C[C@@H]1CN(c2ccc(C#N)c3ncccc23)C[C@H](CNCc2ccccc2)O1 [ER-886509, reference compound]"
  CAT: "FALSE"
- COMPOUND: "CCOC(=O)C1CNCCN1c1ccc2c(c1)CN(C[C@H]1CN(c3ccc(C#N)c4ncccc34)C[C@@H](C)O1)C2 (stereo partly shown)"
  CAT: "FALSE"
- COMPOUND: "C[C@@H]1CN(c2ccc(C#N)c3ncccc23)C[C@H](CN2Cc3ccccc3C2)O1 [Example R3, reference compound]"
  CAT: "FALSE"

* * *

Biological target: UniProt Q9NYK1
Sequence (Q9NYK1 27-1049): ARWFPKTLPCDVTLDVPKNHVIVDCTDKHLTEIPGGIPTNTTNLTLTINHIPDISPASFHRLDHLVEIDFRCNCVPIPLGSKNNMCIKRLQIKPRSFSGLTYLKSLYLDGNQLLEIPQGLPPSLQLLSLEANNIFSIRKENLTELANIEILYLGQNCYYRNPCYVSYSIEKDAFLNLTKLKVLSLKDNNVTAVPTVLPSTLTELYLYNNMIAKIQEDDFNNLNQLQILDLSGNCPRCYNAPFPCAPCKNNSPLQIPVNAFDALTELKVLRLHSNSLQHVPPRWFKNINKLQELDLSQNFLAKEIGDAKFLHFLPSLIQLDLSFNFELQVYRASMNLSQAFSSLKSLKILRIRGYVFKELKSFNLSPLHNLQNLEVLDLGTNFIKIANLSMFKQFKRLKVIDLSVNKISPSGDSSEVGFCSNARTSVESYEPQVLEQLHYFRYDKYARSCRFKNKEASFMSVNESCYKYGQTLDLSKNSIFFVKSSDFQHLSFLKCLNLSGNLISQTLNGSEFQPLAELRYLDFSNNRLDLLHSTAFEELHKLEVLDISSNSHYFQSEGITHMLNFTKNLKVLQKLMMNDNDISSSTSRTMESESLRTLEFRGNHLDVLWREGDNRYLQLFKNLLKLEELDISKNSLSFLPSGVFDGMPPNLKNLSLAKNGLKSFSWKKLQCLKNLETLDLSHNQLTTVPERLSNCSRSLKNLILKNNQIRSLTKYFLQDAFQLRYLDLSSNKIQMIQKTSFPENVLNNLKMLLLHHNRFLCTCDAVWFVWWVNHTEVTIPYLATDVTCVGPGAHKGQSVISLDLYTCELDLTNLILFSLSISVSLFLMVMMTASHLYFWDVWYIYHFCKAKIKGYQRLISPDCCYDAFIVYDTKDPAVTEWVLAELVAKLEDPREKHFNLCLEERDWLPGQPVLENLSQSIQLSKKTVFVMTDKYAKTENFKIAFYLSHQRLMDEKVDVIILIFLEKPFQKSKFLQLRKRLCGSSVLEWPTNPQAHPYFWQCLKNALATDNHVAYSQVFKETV
Assay: HEK293-Blue-hTLR-7 cells assay (SEAP reporter, R848 stimulation)
Assay type: cell-based
Settings: HEK293-Blue-hTLR7 cells, R848, 20 hrs; 0.003 is the lowest tested concentration; read-out: HEK/hTLR7 IC50
Reported log10 of IC50 values are given for each entry in this list.
QUANTITY_NAME: log10 of IC50 (log10 of the value in nM)

- COMPOUND: "C[C@@H]1CN(c2ccc(C#N)c3ncccc23)C[C@H](CN2Cc3ccc(N4CCNCC4C(F)F)cc3C2)O1 (stereo partly shown) [Example 76]"
  log10 of IC50: 0.95
- COMPOUND: "C[C@@H]1CN(c2ccc(C#N)c3nccnc23)C[C@H](CN2Cc3ccc(N4CCN(C5CC5)CC4)cc3C2)O1 [Example 35]"
  log10 of IC50: 1.61
- COMPOUND: "C[C@@H]1CN(c2ccc(C#N)c3ncccc23)C[C@H](CN2Cc3ccc(N4CC5(CCN5)C4)cc3C2)O1 [Example 55]"
  log10 of IC50: 1.90
- COMPOUND: "C[C@@H]1CN(c2ccc(Cl)c3ncccc23)C[C@H](CN2CCc3cc(N4CCNCC4)ccc3C2)O1 [Example 32]"
  log10 of IC50: 1.59
- COMPOUND: "C[C@@H]1CN(c2ccc3c(c2)CN(C[C@H]2CN(c4ccc(C#N)c5nccnc45)C[C@@H](C)O2)C3)CCN1 [Example 65]"
  log10 of IC50: 0.90
- COMPOUND: "C[C@@H]1CN(c2ccc(C#N)c3ncsc23)C[C@H](CN2CCc3cc(N4CCNCC4)ccc3C2)O1 [Example 24]"
  log10 of IC50: 0.95
- COMPOUND: "C[C@@H]1CN(c2ccc(C#N)c3ncccc23)C[C@H](CN2Cc3ccc(N4CC(N)C4)cc3C2)O1 [Example 77]"
  log10 of IC50: 1.51
- COMPOUND: "C[C@@H]1CN(c2ccc(C#N)n3nccc23)C[C@H](CN2CCc3cc(N4CCN(C)CC4)ccc3C2)O1 [Example 15]"
  log10 of IC50: 1.57
- COMPOUND: "C[C@@H]1CN(c2ccc(C#N)c3ncccc23)C[C@H](CN2Cc3cnc(N4CCNCC4)nc3C2)O1 [Example 63]"
  log10 of IC50: 1.11
- COMPOUND: "C[C@@H]1CN(c2ccc(C#N)c3ncccc23)C[C@H](CN2Cc3ccc(CN4CCCCC4)cc3C2)O1 [Example 74]"
  log10 of IC50: 1.77
- COMPOUND: "C[C@@H]1CN(c2ccc(C#N)c3nccnc23)C[C@H](CN2Cc3ccc(N4CCN5CCCCC5C4)cc3C2)O1 (stereo partly shown) [Example 40]"
  log10 of IC50: 1.52
- COMPOUND: "C[C@@H]1CN(c2ccc(C#N)n3nccc23)C[C@H](CN2CCc3cc(N4CCNCC4)ccc3C2)O1 [Example 10]"
  log10 of IC50: 1.91
- COMPOUND: "C[C@@H]1CN(c2ccc(C#N)n3ncc(F)c23)C[C@H](CN2CCc3cc(N4CCNCC4)ccc3C2)O1 [Example 14]"
  log10 of IC50: 1.32
- COMPOUND: "C[C@@H]1CN(c2ccc3c(c2)CN(C[C@H]2CN(c4ccc(C#N)c5ncccc45)C[C@@H](C)O2)C3)C[C@@H](C)N1 (mixture of isomers) [Example 57]"
  log10 of IC50: 2.10
- COMPOUND: "C[C@@H]1CN(c2ccc(C#N)n3nccc23)C[C@H](CN2CCc3ccc(N4CCNCC4)cc3C2)O1 [Example 11]"
  log10 of IC50: 2.28
- COMPOUND: "C[C@@H]1CN(c2ccc(C#N)c3nccnc23)C[C@H](CN2Cc3ccc(N4CC5COCC(C4)N5)cc3C2)O1 [Example 49]"
  log10 of IC50: 1.70
- COMPOUND: "C[C@@H]1CN(c2ccc(Cl)c3ncccc23)C[C@H](CN2Cc3ccc(N4CCNCC4)cc3C2)O1 [Example 31]"
  log10 of IC50: 1.46
- COMPOUND: "C[C@@H]1CN(c2ccc(C#N)c3ncccc23)C[C@H](CN2Cc3ccc(N4CC5(CNC5)C4)cc3C2)O1 [Example 47]"
  log10 of IC50: 1.92
- COMPOUND: "C[C@@H]1CN(c2ccc(C#N)c3ncccc23)C[C@H](CNCc2ccccc2)O1 [ER-886509, reference compound]"
  log10 of IC50: 1.94
- COMPOUND: "C[C@@H]1CN(c2ccc(C#N)n3ncc(F)c23)C[C@H](CN2Cc3cc(N4CCNCC4)cnc3C2)O1 [Example 29]"
  log10 of IC50: 1.69
- COMPOUND: "C[C@@H]1CN(c2ccc(C#N)n3nccc23)C[C@H](CN2Cc3ccc(OCCN(C)C)cc3C2)O1 [Example 28]"
  log10 of IC50: 2.36
- COMPOUND: "C[C@@H]1CN(c2ccc(C#N)c3ncccc23)C[C@H](CN2Cc3cnc(N4CCNCC4)cc3C2)O1 [Example 61]"
  log10 of IC50: 1.36
- COMPOUND: "C[C@@H]1CN(c2ccc(C#N)c3ncccc23)C[C@H](CN2Cc3cc(N4CCNCC4)cnc3C2)O1 [Example 20]"
  log10 of IC50: 1.15
- COMPOUND: "C[C@@H]1CN(c2ccc(C#N)c3nccnc23)C[C@H](CN2Cc3cnc(N4CCNCC4)cc3C2)O1 [Example 60]"
  log10 of IC50: 1.04
- COMPOUND: "C[C@@H]1CN(c2ccc(Cl)c3nccnc23)C[C@H](CN2Cc3ccc(N4CCNCC4)cc3C2)O1 [Example 33]"
  log10 of IC50: 0.95
- COMPOUND: "C[C@@H]1CN(c2ccc(Cl)c3nccnc23)C[C@H](CN2CCc3cc(N4CCNCC4)ccc3C2)O1 [Example 34]"
  log10 of IC50: 1.36
- COMPOUND: "C[C@@H]1CN(c2ccc3c(c2)CN(C[C@H]2CN(c4ccc(C#N)c5ncccc45)C[C@@H](C)O2)C3)C[C@H](C)N1 [Example 71]"
  log10 of IC50: 2.03
- COMPOUND: "C[C@@H]1CN(c2ccc(C#N)n3nccc23)C[C@H](CN2CCc3cnccc3C2)O1 [Example R1, reference compound]"
  log10 of IC50: 2.74

* * *

Target: human TLR8 (Homo sapiens)
Sequence (Q9NR97 27-1041): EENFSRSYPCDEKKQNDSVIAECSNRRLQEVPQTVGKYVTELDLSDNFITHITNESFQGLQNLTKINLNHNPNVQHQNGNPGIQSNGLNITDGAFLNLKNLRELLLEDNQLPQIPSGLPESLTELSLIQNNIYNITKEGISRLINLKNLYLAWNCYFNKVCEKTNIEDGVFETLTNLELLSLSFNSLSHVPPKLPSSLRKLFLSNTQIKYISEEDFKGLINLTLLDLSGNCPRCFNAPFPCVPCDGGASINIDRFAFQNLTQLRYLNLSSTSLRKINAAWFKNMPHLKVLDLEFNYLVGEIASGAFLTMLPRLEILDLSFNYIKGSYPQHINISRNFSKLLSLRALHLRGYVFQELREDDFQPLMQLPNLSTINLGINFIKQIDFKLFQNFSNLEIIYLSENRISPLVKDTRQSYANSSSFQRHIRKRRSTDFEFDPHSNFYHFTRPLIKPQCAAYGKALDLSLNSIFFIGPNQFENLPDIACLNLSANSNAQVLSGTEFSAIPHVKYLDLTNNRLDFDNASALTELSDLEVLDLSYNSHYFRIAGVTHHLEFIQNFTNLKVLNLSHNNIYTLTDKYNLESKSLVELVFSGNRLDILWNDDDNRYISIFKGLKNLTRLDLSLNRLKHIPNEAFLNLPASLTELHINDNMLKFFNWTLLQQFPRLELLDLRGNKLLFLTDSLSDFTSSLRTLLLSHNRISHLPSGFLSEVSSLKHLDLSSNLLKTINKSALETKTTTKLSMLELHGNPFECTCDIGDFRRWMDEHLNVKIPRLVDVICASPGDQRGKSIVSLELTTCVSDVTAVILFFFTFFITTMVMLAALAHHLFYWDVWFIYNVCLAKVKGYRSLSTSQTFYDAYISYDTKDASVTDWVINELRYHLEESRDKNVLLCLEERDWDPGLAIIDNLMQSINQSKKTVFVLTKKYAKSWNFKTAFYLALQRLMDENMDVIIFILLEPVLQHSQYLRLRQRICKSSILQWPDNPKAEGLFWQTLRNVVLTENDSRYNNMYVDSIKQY
Assay: HEK293-Blue-hTLR-8 cells assay (SEAP reporter, R848 stimulation)
Conditions: HEK293-Blue-hTLR8 cells, R848, 20 hrs; 0.003 is the lowest tested concentration; read-out: HEK/hTLR8 IC50
pIC50: −log10 of the molar value.

- MOLECULE: "C[C@@H]1CN(c2ccc(C#N)c3ncccc23)C[C@H](CN2CCc3cc(N4CCNCC4)ncc3C2)O1 [Example 70]"
  RESULT_MODIFIER: ">"
  pIC50: 8.52
- MOLECULE: "C[C@@H]1CN(c2ccc(C#N)c3ncsc23)C[C@H](CN2Cc3cc(N4CCNCC4)cnc3C2)O1 [Example 25]"
  RESULT_MODIFIER: ">"
  pIC50: 8.52
- MOLECULE: "C[C@@H]1CN(c2ccc(C#N)n3nccc23)C[C@H](CNCc2ccc(N3CCNCC3)cc2)O1 [Example 16]"
  RESULT_MODIFIER: "="
  pIC50: 7.80
- MOLECULE: "C[C@@H]1CN(c2ccc(C#N)c3ncccc23)C[C@H](CN2Cc3ccc(N4CCNC[C@H]4CO)cc3C2)O1 [Example 83]"
  RESULT_MODIFIER: "="
  pIC50: 7.70
- MOLECULE: "C[C@@H]1CN(c2ccc(C#N)c3ncccc23)C[C@H](CN2Cc3ccc(N4C5CNCC4COC5)cc3C2)O1 [Example 46]"
  RESULT_MODIFIER: "="
  pIC50: 7.72
- MOLECULE: "C[C@@H]1CN(c2ccc(C#N)n3nccc23)C[C@H](CN2Cc3ccc(N4CCNCC4)cc3C2)O1 [Example 4]"
  RESULT_MODIFIER: "="
  pIC50: 7.24
- MOLECULE: "CC1c2ccc(N3CCNCC3)cc2CN1C[C@H]1CN(c2ccc(C#N)c3ncccc23)C[C@@H](C)O1 (some centres unmarked) [Example 48]"
  RESULT_MODIFIER: "="
  pIC50: 7.74
- MOLECULE: "C[C@@H]1CN(c2ccc(C#N)n3nccc23)C[C@H](CN2Cc3ccc(N4CCN(C)CC4)cc3C2)O1 [Example 17]"
  RESULT_MODIFIER: "="
  pIC50: 7.28
